Overview of recorded IC50 for various compounds
- Study System: KRAS G12V (Homo sapiens, UniProt P01116, G12V)
- Sequence (P01116 1-188 isoform P01116-2 G12V): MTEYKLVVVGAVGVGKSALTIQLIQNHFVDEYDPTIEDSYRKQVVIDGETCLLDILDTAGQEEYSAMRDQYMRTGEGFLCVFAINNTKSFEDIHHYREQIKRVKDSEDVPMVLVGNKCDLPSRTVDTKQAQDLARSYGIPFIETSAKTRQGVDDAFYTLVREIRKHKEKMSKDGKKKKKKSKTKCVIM
- Assay Name: HTRF KRAS-SOS1 interaction assay, KRAS G12V
- Test Conditions: binned ≤2 μM / >2 μM, read-out: Inhibition of KRAS G12V (IC50)
Property Label: IC50

INSERT INTO measurements (compound, property_label, observed_measurement) VALUES
  ('Cc1c(F)c(N)cc(-c2nc3c4c(nc(O[C@@H](C)C5CCCN5C)nc4c2F)N([C@H](C)c2cccnc2N)CCO3)c1C(F)(F)F (single isomer, unassigned) [Compound 748]', 'IC50', '≤ 2 µM'),
  ('C[C@@H]1CN(CC2(COc3nc4c5c(c(C(F)(F)F)c(-c6ccc(F)c7sc(N)c(C#N)c67)c(F)c5n3)OCCN4[C@H](C)c3cccnc3N)CC2)CCO1 (single isomer, unassigned) [Compound 812]', 'IC50', '≤ 2 µM'),
  ('N#Cc1c(N)sc2c(F)ccc(-c3c(C(F)(F)F)c4c5c(nc(OC[C@@]67CCCN6C[C@H](F)C7)nc5c3F)N([C@H](C/C=C/C(F)(F)F)c3cccnc3N)CCO4)c12 (single isomer, unassigned) [Compound 739]', 'IC50', '≤ 2 µM'),
  ('C[C@H](c1cc(Cl)cnc1N)N1CCOc2c(C(F)(F)F)c(-c3ccc(F)c4sc(N)c(C#N)c34)c(F)c3nc(OC[C@@]45CCCN4C[C@H](F)C5)nc1c23 (single isomer, unassigned) [Compound 702]', 'IC50', '> 2 µM'),
  ('C=Cc1c(-c2ccc(F)c3sc(N)c(C#N)c23)c(F)c2nc(OC[C@@]34CCCN3C[C@H](F)C4)nc3c2c1OCCN3[C@H](C)c1cccnc1N (single isomer, unassigned) [Compound 603]', 'IC50', '≤ 2 µM'),
  ('C[C@@H]1CN(CC2(COc3nc4c5c(c(C(F)(F)F)c(-c6ccc(F)c7sc(N)c(C#N)c67)c(F)c5n3)OCCN4[C@H](C)c3cccnc3N)CC2)CCO1 (single isomer, unassigned) [Compound 826]', 'IC50', '> 2 µM'),
  ('C[C@H](c1cccnc1N)N1CCOc2c(Cl)c(-c3ccc(F)c4sc(N)c(C#N)c34)c(F)c3nc(OCC45CCCC4CCC5)nc1c23 (single isomer, unassigned) [Compound 914]', 'IC50', '≤ 2 µM'),
  ('C=CC(F)(F)[C@H](c1cccnc1N)N1CCOc2c(Cl)c(-c3ccc(F)c4sc(N)c(C#N)c34)c(F)c3nc(OC[C@@]45CCCN4C[C@H](F)C5)nc1c23 [Compound 639]', 'IC50', '≤ 2 µM'),
  ('C[C@H](c1cc(C2CC2)cnc1N)N1CCOc2c(C(F)(F)F)c(-c3ccc(F)c4sc(N)c(C#N)c34)c(F)c3nc(OC[C@@]45CCCN4C[C@H](F)C5)nc1c23 [Compound 654]', 'IC50', '≤ 2 µM'),
  ('CCON=C1CN2CCC[C@@]2(COc2nc3c4c(c(Cl)c(-c5ccc(F)c6sc(N)c(C#N)c56)c(F)c4n2)OCCN3[C@H](C)c2cccnc2N)C1 (single isomer, unassigned) [Compound 700]', 'IC50', '≤ 2 µM');
